Target: human FXR alpha (NR1H4) (Homo sapiens, UniProt Q96RI1)
Construct: human FXR alpha (NR1H4—(Acc. No:AF384555)) encoding amino acids 187–472; made in house; host or cells: E. coli BL21
Sequence (Q96RI1 187-472 isoform Q96RI1-2): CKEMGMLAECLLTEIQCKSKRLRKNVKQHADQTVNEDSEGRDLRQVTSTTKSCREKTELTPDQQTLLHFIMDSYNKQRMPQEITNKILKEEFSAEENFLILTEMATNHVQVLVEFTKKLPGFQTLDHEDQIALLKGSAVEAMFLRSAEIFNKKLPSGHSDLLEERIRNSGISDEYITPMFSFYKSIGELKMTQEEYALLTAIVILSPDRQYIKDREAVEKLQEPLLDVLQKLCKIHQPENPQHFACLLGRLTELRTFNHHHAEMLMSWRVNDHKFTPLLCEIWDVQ
Sequence (Q15596 548-878 partner limits assumed): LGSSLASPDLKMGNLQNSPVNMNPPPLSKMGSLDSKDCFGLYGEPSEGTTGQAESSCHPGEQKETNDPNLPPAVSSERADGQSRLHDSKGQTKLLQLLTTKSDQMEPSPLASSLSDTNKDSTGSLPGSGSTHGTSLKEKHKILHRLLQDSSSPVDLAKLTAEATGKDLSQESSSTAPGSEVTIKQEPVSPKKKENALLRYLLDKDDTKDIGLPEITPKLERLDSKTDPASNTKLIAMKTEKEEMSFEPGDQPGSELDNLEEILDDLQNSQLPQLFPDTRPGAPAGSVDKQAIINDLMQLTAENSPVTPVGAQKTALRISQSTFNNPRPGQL
Assay: In vitro screening for FXR binding to coactivator TIF2 (LANCE TR-FRET)
Assay type: biochemical
Details: read-out: EC50 at FXR (half-maximal effective concentration)

line_notation | EC50, µM
CC(C)c1onc(-c2c(Cl)cccc2Cl)c1COc1ccc(OCC(=O)O)cc1 | 0.23

---

Biological target: human FXR alpha (NR1H4) (Homo sapiens)
Construct: human FXR alpha (NR1H4—(Acc. No:AF384555)) encoding amino acids 187–472; made in house; host or cells: E. coli BL21
Sequence (Q96RI1 187-472 isoform Q96RI1-2): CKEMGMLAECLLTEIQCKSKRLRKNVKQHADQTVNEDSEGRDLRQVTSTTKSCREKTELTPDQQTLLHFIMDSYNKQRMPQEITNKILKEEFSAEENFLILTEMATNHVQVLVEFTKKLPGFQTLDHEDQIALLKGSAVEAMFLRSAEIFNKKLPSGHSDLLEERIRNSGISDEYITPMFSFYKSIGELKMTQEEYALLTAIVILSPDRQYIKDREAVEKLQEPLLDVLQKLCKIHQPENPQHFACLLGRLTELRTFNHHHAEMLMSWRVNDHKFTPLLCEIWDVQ
Sequence (Q15596 548-878 partner limits assumed): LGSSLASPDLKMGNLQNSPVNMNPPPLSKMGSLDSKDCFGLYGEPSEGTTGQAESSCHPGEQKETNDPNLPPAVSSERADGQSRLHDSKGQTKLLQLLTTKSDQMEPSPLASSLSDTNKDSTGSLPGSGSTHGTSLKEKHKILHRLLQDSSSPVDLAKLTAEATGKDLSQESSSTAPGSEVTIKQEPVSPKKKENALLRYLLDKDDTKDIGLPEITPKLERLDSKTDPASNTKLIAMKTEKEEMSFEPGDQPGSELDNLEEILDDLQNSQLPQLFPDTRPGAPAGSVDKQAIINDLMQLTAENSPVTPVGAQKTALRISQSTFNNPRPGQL
Assay: In vitro screening for FXR binding to coactivator TIF2 (LANCE TR-FRET)
Type: biochemical
Settings: average of multiple experiments; read-out: EC50 AVG
metric: log10(EC50) (log10 of the value in nM)

line_notation | log10(EC50)
CC(C)c1onc(-c2c(Cl)cccc2Cl)c1COc1ccc(/C=C/C(=O)O)c(Cl)c1 | 1.70
CC(C)c1onc(-c2c(Cl)cccc2Cl)c1COc1ccc(Oc2ccc(C(=O)O)cc2)cc1 | 2.78
CC(C)c1onc(-c2c(Cl)cccc2Cl)c1COc1ccc2cc(C(=O)O)ccc2c1 | 3.41
CC(C)c1onc(-c2c(Cl)cccc2Cl)c1COc1ccc(OCC(=O)O)cc1 | 2.36
CC(C)c1onc(-c2c(Cl)cccc2Cl)c1COc1ccc(CCC(=O)O)cc1 | 2.63
COC(=O)CCc1ccc(OCc2c(-c3c(Cl)cccc3Cl)noc2C(C)C)cc1 | 2.86
